The following binders are shown together with reported association response values.
target: recombinant human OX40 fused to a His-tag (Acro Biosystems, cat. no. OX0-H5224) (human) (UniProt P43489); assay: BLI cross-block; first Ab (competitor): IgG1-CD134-A4453
Sequence (P43489 29-214 limits assumed): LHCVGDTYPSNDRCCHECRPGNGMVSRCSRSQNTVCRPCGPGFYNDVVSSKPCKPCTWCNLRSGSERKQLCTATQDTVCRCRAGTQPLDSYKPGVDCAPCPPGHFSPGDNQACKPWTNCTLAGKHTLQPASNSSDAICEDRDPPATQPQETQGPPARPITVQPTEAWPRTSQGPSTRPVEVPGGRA

Please review the entries below; each comes with its answer.
# binder, reported
data = [
    ("IgG1-CD134-ABBV368 (antibody, INN chains, looked up, V domains shown, IgG1) VH: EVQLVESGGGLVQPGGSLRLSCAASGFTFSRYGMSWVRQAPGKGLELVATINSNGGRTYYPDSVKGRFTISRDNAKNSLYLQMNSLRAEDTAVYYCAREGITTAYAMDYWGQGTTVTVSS VL: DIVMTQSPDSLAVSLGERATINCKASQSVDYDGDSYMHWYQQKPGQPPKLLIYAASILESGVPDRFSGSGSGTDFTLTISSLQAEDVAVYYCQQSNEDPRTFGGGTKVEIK", "0.29 nm"),
    ("IgG1-CD134-GBR830 (antibody, INN chains, looked up, V domains shown, IgG1) VH: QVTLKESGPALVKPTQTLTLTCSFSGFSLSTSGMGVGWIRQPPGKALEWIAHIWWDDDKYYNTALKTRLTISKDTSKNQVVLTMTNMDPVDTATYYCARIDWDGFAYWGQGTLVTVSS VL: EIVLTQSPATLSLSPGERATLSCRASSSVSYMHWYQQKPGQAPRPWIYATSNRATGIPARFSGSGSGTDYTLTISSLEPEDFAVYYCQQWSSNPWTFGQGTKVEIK", "0.28 nm"),
    ("IgG1-CD134-MEDI0562 (antibody, INN chains, looked up, V domains shown, IgG1) VH: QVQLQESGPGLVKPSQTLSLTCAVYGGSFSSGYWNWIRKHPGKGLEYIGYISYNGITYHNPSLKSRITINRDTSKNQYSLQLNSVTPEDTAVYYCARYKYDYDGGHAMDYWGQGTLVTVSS VL: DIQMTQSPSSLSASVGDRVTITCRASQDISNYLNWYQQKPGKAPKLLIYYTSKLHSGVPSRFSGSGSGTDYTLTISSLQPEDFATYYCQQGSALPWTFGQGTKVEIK", "0.41 nm"),
]

Next, consider the following binder.
Requested field: association response. Item: IgG1-CD134-Hu106 (antibody, from another filing, V domains shown) VH: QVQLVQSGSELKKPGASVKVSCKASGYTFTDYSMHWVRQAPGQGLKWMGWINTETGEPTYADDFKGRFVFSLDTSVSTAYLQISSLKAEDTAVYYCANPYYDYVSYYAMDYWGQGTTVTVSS VL: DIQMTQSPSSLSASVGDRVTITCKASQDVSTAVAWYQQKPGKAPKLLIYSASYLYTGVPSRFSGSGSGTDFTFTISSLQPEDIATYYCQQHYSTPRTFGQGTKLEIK
0.29 nm
